Tested on: B6C3F1 mice, ip Sarcoma M5076, median survival T/C
MEASUREMENT_PROTOCOL: NCI In Vivo Anticancer Drug Screen. Data for tumor model Sarcoma M5076 (intraperitoneal) in B6C3F1 mice
CONDITION_INFO: endpoint: median survival time; dose: 50.0 mg/kg/injection; schedule: Q04DX004 (ip); vehicle: saline with Tween-80; higher = longer survival
Inconclusive results and toxic doses are left out.
QUANTITY_NAME: T/C

CC(O)C1(O)C(O)CC(OC2c3cc4c(c(O)c3[C@@H]3C[C@@]2(C)OC32C=c3cc[nH]c3=N2)C(=O)c2cccc(O)c2C4=O)OC1C (stereo partly drawn)	92 % of control
Nc1ccc2ccc(NS(=O)(=O)N3CCCCC3)cc2c1	100 % of control

Asked: Entry NC(Cc1ccc[se]1)C(=O)O (stereo not drawn) has what T/C?
Given back: 109 % of control

Asked: Proceed to `O=Cc1ccc(O)c(O)c1`
Given back: 100 % of control

Asked: Would you kindly repeat that for CCN(CC)Cc1cc2[nH]c3c4ccc(Cl)cc4ncc3c2cc1OC (tested in a mixture with another compound) ?
Given back: 110 % of control

Asked: Record: Nc1ccc2c(c1)C1(CCC2)NC(=O)NC1=O (stereo not drawn)
Given back: 97 % of control

Asked: Ok, now N#CC1C(=O)NC(=S)NC1c1ccc(C2CC(=O)NC(=S)N2)cc1 (stereo not drawn)
Given back: 93 % of control

Asked: Okay, and `O=C1C2CC3CC1CC(Cl)(C3)C2` ?
Given back: 94 % of control

Asked: Follow-up entry: `CC(=O)C[n+]1ccccc1Sc1ccc(Cl)cc1`
Given back: 86 % of control

Asked: Here is the next molecule: `O=C(CN1CCOCC1)Nc1nc(-c2ccc(Cl)cc2)cs1`
Given back: 92 % of control

Asked: Entry `CCN(CC)c1ccc2[nH]c3c(C(N)=O)cc(=O)c(=O)c=3oc2c1` please
Given back: 108 % of control

Asked: # repeat for Nc1cc2c(cc1Br)-c1c(C(=O)O)cccc1C2O (stereo not drawn)
Given back: 96 % of control

Asked: Another molecule to look at: `CC1=CC(C)(C)N=C2SC(COc3ccccc3)=NN12`
Given back: 104 % of control

Asked: Follow-up entry: `O=c1/c(=C\C=C\c2ccccc2)sc2n1CCN=2`
Given back: 95 % of control

Asked: Follow-up entry: `Clc1ccc(-c2noc(CN3CCCCC3)n2)cc1`
Given back: 92 % of control

Asked: Entry `O=C(Nc1nc(-c2ccccc2)cs1)OCC(Cl)(Cl)Cl` please
Given back: 107 % of control

Asked: And the next one, `CN(C)c1cc2c(nn1)Nc1ccccc1S2` ?
Given back: 88 % of control

Asked: Consider next the molecule `O=C(Nc1cc(Cl)ccc1C(=O)O)c1cccc(C[n+]2ccccc2)c1` in the same way.
Given back: 100 % of control

Asked: Same question for `N#Cc1c(N)[nH]c2ccc(Sc3ccccc3)cc12` please.
Given back: 114 % of control

Asked: And `Cc1nc2cc[nH]n2c(=O)c1CCc1ccccc1` ?
Given back: 107 % of control

Asked: Please do the same for `COc1ccc(-c2c(N3CCOCC3)oc3cc(N4CCOCC4)c(O)cc23)cc1` as well.
Given back: 95 % of control

Asked: Okay, and `CC1=C(/C=C/C(C)=C/C=C/C(C)=C/C(=O)Nc2ccc(O)cc2)C(C)(C)CCC1` ?
Given back: 96 % of control

Asked: Repeat for the following molecule: `Cc1ccc(C(=Nc2ccccc2)N=P(c2ccccc2)(c2ccccc2)c2ccccc2)cc1`
Given back: 93 % of control
